Taken from patent US7029840B2.

Listed next: entries and their corresponding Average MOTA Value.
System: intact cells of N. gonorrhoeae
Type: cell-based, N. gonorrhoeae ATCC 19424
Study conditions: 10 mM, urine, room temperature, Day 6
// return just the number, without any unit appended

Sample records with Average MOTA Value:
INSERT INTO assay_data (compound, measured) VALUES
  ('O.O.O.O.O.O.O.O.O.O.[Na+].[Na+].[O-]B1OB2OB([O-])OB(O1)O2 [sodium borate, Sodium borate]', 15464),
  ('[F-].[Na+] [sodium fluoride, Sodium fluoride]', 10894),
  ('O=C[O-].[Na+] [sodium formate, Sodium formate]', 2211);

Shifting focus to the compound that follows.
-- ask May I ask what Average MOTA Value has been recorded for [Cl-].[Cl-].[Mg+2] [MgCl^2, Magnesium chloride] ?
-- reply 4547
